SYSTEM NAME: RUNX1 (UniProt Q01196)
Sequence (Q01196 whole entry): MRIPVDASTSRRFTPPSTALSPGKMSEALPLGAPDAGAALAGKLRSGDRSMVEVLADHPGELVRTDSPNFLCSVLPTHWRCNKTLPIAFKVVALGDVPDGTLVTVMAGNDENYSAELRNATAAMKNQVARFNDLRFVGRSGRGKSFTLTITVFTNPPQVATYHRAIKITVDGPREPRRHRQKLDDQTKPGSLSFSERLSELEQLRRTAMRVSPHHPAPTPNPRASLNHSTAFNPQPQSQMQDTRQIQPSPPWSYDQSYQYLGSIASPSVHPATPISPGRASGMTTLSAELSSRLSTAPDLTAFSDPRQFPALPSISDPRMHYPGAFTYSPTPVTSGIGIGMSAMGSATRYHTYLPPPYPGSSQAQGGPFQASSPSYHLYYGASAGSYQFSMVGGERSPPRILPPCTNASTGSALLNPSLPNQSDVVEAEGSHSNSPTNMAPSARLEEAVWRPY
TEST SUMMARY: RUNX1 binding intensity (PBM fluorescence), RUNX1 alone (arbitrary fluorescence units); higher = stronger binding;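 also: Full-length recombinant human RUNX1 bound to double-stranded 36-bp genomic probes on a high-density microarray, scored as Alexa488 fluorescence per spot via anti-RUNX1 antibody, median of four replicate spots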
COND: RUNX1 concentration 2 nM; ETS1 concentration 0 nM
Assign class by RUNX1 binding intensity: not lower than 900 means t; lower than 900 means f.

seq_string=GCTCCTGGCCCGCACTTCCGACCACACACTGGGGAC system_name="RUNX1 (UniProt Q01196)" answer_label=t
seq_string=CCCACCCAGGAAGCCGTCCTAACCACAACAGCCCTC system_name="RUNX1 (UniProt Q01196)" answer_label=t
seq_string=GGTTCATTTCCTTTTCCTCCTTGTGGTATAAAAGAG system_name="RUNX1 (UniProt Q01196)" answer_label=t
seq_string=ACAGGAAGTGTCTCTATAGAAACCAAACCACAGAAA system_name="RUNX1 (UniProt Q01196)" answer_label=t
seq_string=CTTAAATGGGAAATGTAGGTGTGGTTAAGTCACAAA system_name="RUNX1 (UniProt Q01196)" answer_label=f
seq_string=AGCTAAACCCAGTTCCGGTGCTGTGGGGAGCTCAGA system_name="RUNX1 (UniProt Q01196)" answer_label=f
seq_string=CCTCTGAGGCAGGAAGCTGCGGTGAAGTCTGAAGTT system_name="RUNX1 (UniProt Q01196)" answer_label=f
seq_string=GATCCCCCTCCTCCATCCTGTGGCTTCGGGTTGCCG system_name="RUNX1 (UniProt Q01196)" answer_label=f
seq_string=GGCAGCAAGAAAGGAAATAGTGTGGTTGGGTGGAGA system_name="RUNX1 (UniProt Q01196)" answer_label=f
seq_string=TGAGCTCAGGCCGGAAGCGGTGGATGATGGCACACA system_name="RUNX1 (UniProt Q01196)" answer_label=f
seq_string=CCTGGGGGGCCGGAAGCCCCGCTGCGGCCCCAGCCC system_name="RUNX1 (UniProt Q01196)" answer_label=f

----------
Collected RUNX1 binding intensity values appear next to each entry.
SYSTEM NAME: RUNX1 (UniProt Q01196)
TEST SUMMARY: RUNX1 binding intensity (PBM fluorescence), RUNX1 alone (arbitrary fluorescence units); higher = stronger binding
COND: RUNX1 concentration 2 nM; ETS1 concentration 0 nM
MEASUREMENT LABEL: RUNX1 binding intensity

seq_string=GTGCCCCGGACCTACGGATACCACACACAGACAGGC measurement_label="RUNX1 binding intensity" measured_result=928
seq_string=GAAGCGCTGGGCGGAAGTGGCTGTGGCTTTGCCCTT measurement_label="RUNX1 binding intensity" measured_result=735
seq_string=GGCCGTTCTTCCGCCTGCAGGGTGGTCAGCGGAGGT measurement_label="RUNX1 binding intensity" measured_result=712
seq_string=AGGGTGTGGAGGAAGTGGCTTACAACCACTTTGTCT measurement_label="RUNX1 binding intensity" measured_result=764
seq_string=CAGAAAAGGCAGGAAGTGGTACAAACCACAAAAGGC measurement_label="RUNX1 binding intensity" measured_result=1320
seq_string=CAAGAGAAAGGAAGTGGAAGCTCTTGTGGTCTGGAA measurement_label="RUNX1 binding intensity" measured_result=733
seq_string=TACCTACAGGAAATGAGACACACCGCAGGCCGATCC measurement_label="RUNX1 binding intensity" measured_result=868
seq_string=TGAGAAAACAGGAAGCGCCCAGTCACCACAGAAAGC measurement_label="RUNX1 binding intensity" measured_result=765
seq_string=ACATGGTCTCGCTTCCTGTTTACACCACAGAAAGCT measurement_label="RUNX1 binding intensity" measured_result=1040
seq_string=TCCTATATACTTCCGTTTGCCTCGCGGTTTCTTTCT measurement_label="RUNX1 binding intensity" measured_result=2730
seq_string=TGCTCAGAAGGGCATCCGGTTGCGGAGAAGGTACAC measurement_label="RUNX1 binding intensity" measured_result=653
seq_string=GCCGCCGTTTCCTGATTGGTTGTGGGTGGCTACCTC measurement_label="RUNX1 binding intensity" measured_result=834
